test-target: human GABABR1aR2a (Homo sapiens, UniProt O75899+Q9UBS5)
Construct: expressed in transfected cells
Sequence (Q9UBS5 15-961 limits assumed): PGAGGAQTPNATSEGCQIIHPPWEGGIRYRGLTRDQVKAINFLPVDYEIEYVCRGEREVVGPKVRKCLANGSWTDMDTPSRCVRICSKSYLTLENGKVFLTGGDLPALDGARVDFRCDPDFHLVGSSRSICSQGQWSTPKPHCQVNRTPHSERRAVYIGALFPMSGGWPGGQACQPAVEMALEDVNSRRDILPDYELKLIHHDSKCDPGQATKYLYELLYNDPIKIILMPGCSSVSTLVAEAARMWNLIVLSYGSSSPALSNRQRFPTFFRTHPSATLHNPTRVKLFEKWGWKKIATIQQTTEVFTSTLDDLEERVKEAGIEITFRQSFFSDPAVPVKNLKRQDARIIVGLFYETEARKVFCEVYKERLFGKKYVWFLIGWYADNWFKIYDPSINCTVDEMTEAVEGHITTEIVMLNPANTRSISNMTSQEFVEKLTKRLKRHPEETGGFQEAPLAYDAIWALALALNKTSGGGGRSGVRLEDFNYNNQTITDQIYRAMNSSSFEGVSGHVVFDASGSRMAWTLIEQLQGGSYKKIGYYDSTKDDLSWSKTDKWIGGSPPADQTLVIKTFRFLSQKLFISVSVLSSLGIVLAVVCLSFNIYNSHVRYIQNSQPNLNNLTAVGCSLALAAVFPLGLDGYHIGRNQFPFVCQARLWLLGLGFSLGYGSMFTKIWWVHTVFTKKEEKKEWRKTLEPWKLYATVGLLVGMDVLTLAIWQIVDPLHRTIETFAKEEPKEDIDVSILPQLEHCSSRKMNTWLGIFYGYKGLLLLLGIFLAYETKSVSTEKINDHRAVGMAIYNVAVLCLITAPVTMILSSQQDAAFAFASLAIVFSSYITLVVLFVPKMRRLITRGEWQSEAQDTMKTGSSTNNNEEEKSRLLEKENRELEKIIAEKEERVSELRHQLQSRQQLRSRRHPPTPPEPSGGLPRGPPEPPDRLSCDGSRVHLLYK
Sequence (O75899 42-941): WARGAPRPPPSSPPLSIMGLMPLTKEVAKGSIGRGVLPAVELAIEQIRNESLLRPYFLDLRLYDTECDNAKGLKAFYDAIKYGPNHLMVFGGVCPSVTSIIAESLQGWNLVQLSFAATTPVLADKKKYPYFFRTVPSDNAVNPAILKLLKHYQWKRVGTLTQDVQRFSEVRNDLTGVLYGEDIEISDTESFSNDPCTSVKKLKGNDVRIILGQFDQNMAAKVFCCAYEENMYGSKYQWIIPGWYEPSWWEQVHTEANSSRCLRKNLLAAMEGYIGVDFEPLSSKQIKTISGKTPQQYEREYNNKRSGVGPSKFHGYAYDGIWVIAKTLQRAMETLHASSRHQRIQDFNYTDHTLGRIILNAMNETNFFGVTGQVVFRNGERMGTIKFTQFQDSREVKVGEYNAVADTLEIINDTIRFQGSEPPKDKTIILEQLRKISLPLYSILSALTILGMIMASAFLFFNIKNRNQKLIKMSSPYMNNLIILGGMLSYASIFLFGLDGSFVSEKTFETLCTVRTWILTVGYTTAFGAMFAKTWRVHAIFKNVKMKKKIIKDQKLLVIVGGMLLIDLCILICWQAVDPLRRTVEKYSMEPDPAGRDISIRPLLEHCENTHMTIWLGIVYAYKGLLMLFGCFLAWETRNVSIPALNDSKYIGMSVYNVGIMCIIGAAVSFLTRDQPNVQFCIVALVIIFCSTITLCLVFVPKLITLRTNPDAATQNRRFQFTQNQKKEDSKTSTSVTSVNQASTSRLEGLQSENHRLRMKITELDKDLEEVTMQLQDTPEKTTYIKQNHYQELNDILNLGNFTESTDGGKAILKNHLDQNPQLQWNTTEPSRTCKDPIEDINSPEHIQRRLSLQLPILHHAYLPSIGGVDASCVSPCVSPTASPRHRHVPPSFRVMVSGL
measurement-description: Intracellular Ca2+ mobilization assay (FLIPR) in CHO-GABABR1aR2a-Gα16 cell
Assay type: cell-based
condition-set: enhancer concentration-response in presence of 10 nM GABA
Classify: 1 (yes) when EC50 is strictly less than 6 µM; 0 (no) when EC50 is not.

# compound, class
data = [
    ("CCCCCCSc1nc(C)cc(CN2C[C@@H]3C[C@@H](C2)c2cccc(=O)n2C3)n1", "1 (yes)"),
    ("CCCCCCSc1nc(C)cc(CN2[C@H](C)CCC[C@@H]2C)n1", "0 (no)"),
    ("CCCCCSc1nc(C)cc(CN2CCOCC2)n1", "1 (yes)"),
    ("CCCCCCSc1nc(C)cc(C(C)N2CCOCC2)n1 (centres unmarked)", "1 (yes)"),
    ("CCCCCCSc1nc(C)cc(CN2C(C)CCCC2C)n1 (centres unmarked)", "0 (no)"),
    ("CCCCCCSc1nc(C)cc(CN2CCCCC2C)n1 (centres unmarked)", "0 (no)"),
    ("Cc1cc(CN2CCOCC2)nc(SCc2ccc(C(C)(C)C)cc2)n1", "1 (yes)"),
    ("CCCCCCSc1nc(C)cc(CN2CCOCC2)n1", "1 (yes)"),
    ("CCCCCCSc1nc(C)cc(CN2CCCC2)n1", "0 (no)"),
    ("CCCCCCSc1nc(CN2CCOCC2)cc(C(F)(F)F)n1", "0 (no)"),
    ("CCCCCCSc1nc(CC)cc(CN2CCOCC2)n1", "1 (yes)"),
]

====

test-target: human GABABR1aR2a (Homo sapiens, UniProt O75899+Q9UBS5)
Construct: expressed in transfected cells
measurement-description: Intracellular Ca2+ mobilization assay (FLIPR) in CHO-GABABR1aR2a-Gα16 cell
Assay type: cell-based
condition-set: 10 μM enhancer applied 15 min before GABA (0.0003-30 μM)
Let's look at some compounds and their measured GABA shift Log [EC50(GABA + 10 μM cp)/EC50(GABA alone)].
parameter-measured: GABA shift Log [EC50(GABA + 10 μM cp)/EC50(GABA alone)]

# compound, observed-result
records = [
    ("CCCCCCSc1nc(C)cc(CN2C(C)CCCC2C)n1 (centres unmarked)", "−0.76"),
    ("CCCCCCSc1nc(CN2CCOCC2)cc(C(F)(F)F)n1", "−0.48"),
    ("CCCCCCSc1nc(C)cc(C(C)N2CCOCC2)n1 (centres unmarked)", "−0.70"),
    ("CCCCCCSc1nc(C)cc(CN2CCCC2)n1", "−0.50"),
    ("CCCCCCSc1nc(CC)cc(CN2CCOCC2)n1", "−0.86"),
    ("CCCCCCSc1nc(C)cc(CN2C[C@@H]3C[C@@H](C2)c2cccc(=O)n2C3)n1", "−0.92"),
    ("CCCCCCSc1nc(C)cc(CN2CCCCC2C)n1 (centres unmarked)", "−0.69"),
    ("CCCCCCSc1nc(C)cc(CN2CCOCC2)n1", "−0.75"),
    ("CCCCCSc1nc(C)cc(CN2CCOCC2)n1", "−0.55"),
    ("CCCCCCSc1nc(C)cc(CN2[C@H](C)CCC[C@@H]2C)n1", "−0.71"),
    ("Cc1cc(CN2CCOCC2)nc(SCc2ccc(C(C)(C)C)cc2)n1", "−0.60"),
]
